Experiment: Thermodynamic solubility of the compound at pH 7.4 after 24 hrs by UPLC-MS analysis
Assay type: physicochemical
Conditions: buffer, read-out: Therm_solubility
reported.endpoint: solubility thermodynamic at 24 h (µM)

[[record]]
compound_string = "CC(C)C[C@@H]1NC(=O)[C@@H](CC(C)C)NC(=O)[C@@H](CCC(=O)N2CCCC2)NC(=O)[C@@H](CC(C)C)NC(=O)[C@@H](CC(C)C)NC(=O)[C@H]2CCCN2C1=O"
assay_result = 460


(A) CC(C)C[C@H]1NC(=O)[C@H]2CCCN2C(=O)[C@H](CCC(=O)N2CCCC2)NC(=O)[C@@H](CC(C)C)NC(=O)[C@@H](CC(C)C)NC(=O)[C@@H](CC(C)C)NC1=O
(B) CC(C)C[C@@H]1NC(=O)[C@@H](CC(C)C)NC(=O)[C@H](CC(C)C)NC(=O)[C@@H](CCC(=O)N(C)C)NC(=O)[C@H]2CCCN2C(=O)[C@H](CC(C)C)NC1=O
Param pair: A , B . Output: the one whose solubility thermodynamic at 24 h is numerically greater. Selection: enter the item's label.
B

----------
Test: Apparent permeability of the compound after 15 hrs by UPLC-MS based PAMPA
Assay type: ADME
Settings: PAMPA
reported.endpoint: Papp at 15 h (×10⁻⁶ cm/s)

As a guide, the following entries are already answered.
[[record]]
compound_string = "CC(C)C[C@H]1NC(=O)[C@H]2CCCN2C(=O)[C@H](CCC(=O)N2CCCC2)NC(=O)[C@@H](CC(C)C)NC(=O)[C@@H](CC(C)C)NC(=O)[C@@H](CC(C)C)NC1=O"
reported_endpoint = "Papp at 15 h"
assay_result = 1.5

[[record]]
compound_string = "CC(C)C[C@@H]1NC(=O)[C@@H](CCC(=O)N2CCCC2)NC(=O)[C@H](CC(C)C)NC(=O)[C@@H](CC(C)C)NC(=O)[C@H]2CCCN2C(=O)[C@H](CC(C)C)NC1=O"
reported_endpoint = "Papp at 15 h"
assay_result = 0.14

[[record]]
compound_string = "CC(C)C[C@@H]1NC(=O)[C@@H](CC(C)C)NC(=O)[C@@H](CC(C)C)NC(=O)[C@@H](CC(C)C)NC(=O)[C@H]2CCCN2C(=O)[C@H](CCC(=O)N2CCCC2)NC1=O"
reported_endpoint = "Papp at 15 h"
assay_result = 0.66


(I) CC(C)C[C@@H]1NC(=O)[C@@H](CC(C)C)NC(=O)[C@H](CC(C)C)NC(=O)[C@@H](CC(=O)N2CCCC2)NC(=O)[C@H]2CCCN2C(=O)[C@H](CC(C)C)NC1=O
(II) CC(C)C[C@@H]1NC(=O)[C@@H](CC(C)C)NC(=O)[C@H](CC(C)C)NC(=O)[C@@H](CC(=O)N(C)C)NC(=O)[C@H]2CCCN2C(=O)[C@H](CC(C)C)NC1=O
Exercise: compare I and II ; which one has the greater Papp at 15 h? Answer format: the label of the selected item.
I
(I: 0.56 ×10⁻⁶ cm/s, II: 0.28 ×10⁻⁶ cm/s)

----------
Assay: Apparent permeability of the compound after 15 hrs by UPLC-MS based PAMPA
Assay type: ADME
Settings: pampa, 15 h
Item-by-item account of Papp

Below, 2 molecules whose answers are already recorded.
[[record]]
compound_string = "CC(C)C[C@@H]1NC(=O)[C@@H](CC(C)C)NC(=O)[C@@H](CC(C)C)NC(=O)[C@@H](CC(C)C)NC(=O)[C@@H](CC(C)C)NC(=O)[C@H]2CCCN2C1=O"
assay_result = "5.3 10^-6 cm/s"

[[record]]
compound_string = "CC(C)C[C@@H]1NC(=O)[C@@H](CC(C)C)NC(=O)[C@@H](CC(C)C)NC(=O)[C@@H](CCC(=O)N2CCCC2)NC(=O)[C@H]2CCCN2C(=O)[C@H](CC(C)C)NC1=O"
assay_result = "1.7 10^-6 cm/s"


Let us move to another entry and its Papp.
Entry `CC(C)C[C@@H]1NC(=O)[C@@H](CC(C)C)NC(=O)[C@@H](CC(C)C)NC(=O)[C@@H](CC(C)C)NC(=O)[C@@H](CCC(=O)N2CCCC2)NC(=O)[C@H]2CCCN2C1=O` , Papp reported as 0.56 10^-6 cm/s
